# MEASUREMENT TARGET: LgTrip 3546 (with His tag; SEQ ID NO: 51)
# Sequence (chain, as listed by the source): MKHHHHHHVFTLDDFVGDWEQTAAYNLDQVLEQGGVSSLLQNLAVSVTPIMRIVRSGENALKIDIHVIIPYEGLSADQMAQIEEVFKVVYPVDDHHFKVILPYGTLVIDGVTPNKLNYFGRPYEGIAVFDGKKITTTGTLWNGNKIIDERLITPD
# METHOD: luminescence complementation
# PROTOCOL CONDITIONS: modification not given
pKd: −log10 of the molar value.
Parameter: pKd. Scope: all listed entries.
PROPERTY NAME: pKd

- DKMLFRVTIGNWK [740]: 5.44
- DKMLFRVTIQKWK [738]: 6.64
- DQMLFRVTINSWK [658]: 5.36
- GKMLFRVTIKKWK [673]: 7.40
- DKMLFTVTIEKWK [753]: 6.92
- GKMLFRVTISKWK [670]: 7.52
- DKMLFKVTIQKWK [744]: 5.95
- DKMLFRVTIQNWK [741]: 4.90
